Data provenance: patent US10947243B2

Consider the following molecules; for each one, report its pIC50.
- assayed-system: Recombinant human Aurora B (amino acids 1-344) (Homo sapiens (Human), UniProt Q96GD4)
- Sequence (Q96GD4 whole entry, the tested form may be a part): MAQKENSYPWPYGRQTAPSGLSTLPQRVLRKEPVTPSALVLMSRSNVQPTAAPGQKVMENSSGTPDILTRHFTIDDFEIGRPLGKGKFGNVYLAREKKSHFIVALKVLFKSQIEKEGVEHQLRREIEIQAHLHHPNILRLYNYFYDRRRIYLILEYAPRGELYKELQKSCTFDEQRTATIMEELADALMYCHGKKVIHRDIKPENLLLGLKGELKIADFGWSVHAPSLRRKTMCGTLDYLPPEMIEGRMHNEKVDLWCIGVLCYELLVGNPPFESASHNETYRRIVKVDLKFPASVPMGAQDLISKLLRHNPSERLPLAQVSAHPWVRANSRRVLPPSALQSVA
- run-description: Aurora B Kinase Test (ADP Glo luminescence)
- Type: biochemical
- run-conditions: read-out: AURB-inhibition IC50-value
pIC50: −log10 of the molar value.

Could you please provide reported pIC50 for `C[C@@H](Oc1cc(-c2cscn2)cc2nn(C)cc12)[C@H]1CNC(=O)C1` ? Thanks!
< 4.30

Could you please provide reported pIC50 for `C[C@@H](Oc1cc(-c2ccn(C)n2)cc2nn(C)cc12)[C@H]1CNC(=O)C1` ? Thanks!
< 4.30

Could you please provide reported pIC50 for `C[C@@H](Oc1nc(-c2ccc3cc(C(=O)N(C)C)n(C)c3c2)cc2nn(C)cc12)[C@H]1CNC(=O)C1` ? Thanks!
< 4.30

----------
- run-description: Human Liver Microsomal Stability Test
- Format: in vitro ADME
- run-conditions: human liver microsomes; comparison compounds, Example numbers of WO 2013/014060
Could you mark each record yes if its microsomal stability Cl [% Qh] falls strictly under 40 % Qh, and no if it equals or exceeds it?

In the record for C[C@@H](Oc1nc(-c2cc3nn(C)cc3c(O[C@H](C)[C@H]3CNC(=O)C3)n2)cc2nn(C)cc12)[C@@H]1CNC(=O)C1 [Example 11] , is microsomal stability Cl [% Qh] less than 40 % Qh?
yes

In the record for C[C@@H](Oc1cc(-c2ccc(C3CCN(C)CC3)cc2)cc2nn(C)cc12)[C@H]1CNC(=O)C1 [Example 42] , is microsomal stability Cl [% Qh] less than 40 % Qh?
yes

In the record for CC(C)n1cc(-c2cc(O[C@H](C)[C@H]3CNC(=O)C3)c3cccnc3c2)cn1 [compound 115] , is microsomal stability Cl [% Qh] less than 40 % Qh?
yes

In the record for COc1cc(-c2cc(O[C@H](C)[C@H]3CNC(=O)C3)c3cccnc3c2)cc(OC)c1OC [Example 2 of WO 2013/014060, reference compound] , is microsomal stability Cl [% Qh] less than 40 % Qh?
no

In the record for Cc1nc(C)c2cc(-c3cc(O[C@H](C)[C@H]4CNC(=O)C4)c4cccnc4c3)ccc2n1 [compound 107] , is microsomal stability Cl [% Qh] less than 40 % Qh?
yes

In the record for C[C@@H](Oc1cc(-c2cscn2)cc2nn(C)cc12)[C@H]1CNC(=O)C1 [Example 29] , is microsomal stability Cl [% Qh] less than 40 % Qh?
no

In the record for COc1cc(-c2cc3nn(C)cc3c(O[C@H](C)[C@H]3CNC(=O)C3)n2)ccc1O [Example 8] , is microsomal stability Cl [% Qh] less than 40 % Qh?
no

In the record for C[C@@H](Oc1nc(-c2cnn(C3CCC(F)(F)CC3)c2)cc2nn(C)cc12)[C@H]1CNC(=O)C1 [Example 10] , is microsomal stability Cl [% Qh] less than 40 % Qh?
no

In the record for Cc1c(-c2cc(O[C@H](C)[C@H]3CNC(=O)C3)c3cccnc3c2)cnn1C [compound 112] , is microsomal stability Cl [% Qh] less than 40 % Qh?
yes

----------
- assayed-system: Recombinant human Syk (amino acids 342-635) (Homo sapiens (Human))
- run-description: Syk Kinase Test (Kinase Glo luminescence)
- Type: biochemical
- run-conditions: comparison compounds, Example numbers of WO 2013/014060; read-out: IC50 in μM (SYK-Inhibition)
Could you mark each record 1.0 if its IC50 falls strictly under 0.002 µM, and 0.0 if it equals or exceeds it?

In the record for C[C@@H](Oc1cc(-c2ccc(F)cn2)cc2nn(C)cc12)[C@H]1CNC(=O)C1 [Example 41] , is IC50 less than 0.002 µM?
1.0

In the record for Cc1c(-c2cc(O[C@H](C)[C@H]3CNC(=O)C3)c3cccnc3c2)cnn1C [compound 112] , is IC50 less than 0.002 µM?
0.0

In the record for CC(C)n1cc(-c2cc(O[C@H](C)[C@H]3CNC(=O)C3)c3cccnc3c2)cn1 [compound 115] , is IC50 less than 0.002 µM?
1.0

In the record for C[C@@H](Oc1nc(-c2cnn(C(C)(C)C)c2)cc2nn(C)cc12)[C@H]1CNC(=O)C1 [Example 2] , is IC50 less than 0.002 µM?
0.0

In the record for C[C@@H](Oc1nc(-c2cnn(C3CCC(F)(F)CC3)c2)cc2nn(C)cc12)[C@H]1CNC(=O)C1 [Example 10] , is IC50 less than 0.002 µM?
1.0

In the record for COc1cc(-c2cc3nn(C)cc3c(O[C@H](C)[C@H]3CNC(=O)C3)n2)ccc1OC(C)C [Example 81] , is IC50 less than 0.002 µM?
0.0

----------
- assayed-system: Recombinant human Aurora B (amino acids 1-344) (Homo sapiens (Human))
- run-description: Aurora B Kinase Test (ADP Glo luminescence)
- Format: biochemical
- run-conditions: comparison compounds, Example numbers of WO 2013/014060; read-out: IC50 in μM (AURB-Inhibition)
recorded-endpoint: IC50 (µM)
// note: answer is a bare numeric in µM

Could you please provide reported IC50 for `C[C@@H](Oc1nc(-c2cnn(C3CCC(F)(F)CC3)c2)cc2nn(C)cc12)[C@H]1CNC(=O)C1` ? Thanks!
0.271

Could you please provide reported IC50 for `C[C@@H](Oc1nc(-c2cc3nn(C)cc3c(O[C@H](C)[C@H]3CNC(=O)C3)n2)cc2nn(C)cc12)[C@@H]1CNC(=O)C1` ? Thanks!
0.752

Could you please provide reported IC50 for `C[C@@H](Oc1nc(-c2cnn(C(C)(C)C)c2)cc2nn(C)cc12)[C@H]1CNC(=O)C1` ? Thanks!
16.9

Could you please provide reported IC50 for `C[C@@H](Oc1cc(-c2ccc(F)cn2)cc2nn(C)cc12)[C@H]1CNC(=O)C1` ? Thanks!
0.308

Could you please provide reported IC50 for `CCCn1cc(-c2cc(O[C@H](C)[C@H]3CNC(=O)C3)c3cccnc3c2)cn1` ? Thanks!
2.54

Could you please provide reported IC50 for `C[C@@H](Oc1cc(-c2ccc(C3CCN(C)CC3)cc2)cc2nn(C)cc12)[C@H]1CNC(=O)C1` ? Thanks!
0.63

Could you please provide reported IC50 for `C[C@@H](Oc1nc(-c2ccc(C(F)(F)F)nc2)cc2nn(C)cc12)[C@H]1CNC(=O)C1` ? Thanks!
0.25

----------
- assayed-system: FLT3 (Homo sapiens (Human), UniProt P36888)
- Sequence (P36888 564-958): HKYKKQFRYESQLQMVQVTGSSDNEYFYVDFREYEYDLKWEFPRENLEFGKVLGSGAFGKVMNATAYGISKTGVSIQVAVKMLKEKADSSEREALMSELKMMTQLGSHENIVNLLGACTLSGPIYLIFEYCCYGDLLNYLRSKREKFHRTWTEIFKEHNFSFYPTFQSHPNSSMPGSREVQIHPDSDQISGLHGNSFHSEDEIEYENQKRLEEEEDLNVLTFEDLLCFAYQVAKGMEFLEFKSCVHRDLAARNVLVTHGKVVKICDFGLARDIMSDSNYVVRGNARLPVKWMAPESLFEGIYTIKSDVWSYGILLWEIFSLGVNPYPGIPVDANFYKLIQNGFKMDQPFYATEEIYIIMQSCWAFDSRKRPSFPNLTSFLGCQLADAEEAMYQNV
- run-description: FLT3 Kinase Test (Z'-LYTE)
- Assay type: biochemical
- run-conditions: comparison compounds, Example numbers of WO 2013/014060; read-out: IC50 in μM (FLT3-Inhibition)
recorded-endpoint: IC50 (µM)
// note: answer is a bare numeric in µM

Name the value of IC50 reported for C[C@@H](Oc1cc(-c2ccc(C3CCN(C)CC3)cc2)cc2nn(C)cc12)[C@H]1CNC(=O)C1 [Example 42] when tested on FLT3 (Homo sapiens (Human), UniProt P36888).
0.618

Name the value of IC50 reported for C[C@@H](Oc1nc(-c2cnn(C3CCC(F)(F)CC3)c2)cc2nn(C)cc12)[C@H]1CNC(=O)C1 [Example 10] when tested on FLT3 (Homo sapiens (Human), UniProt P36888).
0.312

Name the value of IC50 reported for C[C@@H](Oc1nc(-c2cc3nn(C)cc3c(O[C@H](C)[C@H]3CNC(=O)C3)n2)cc2nn(C)cc12)[C@@H]1CNC(=O)C1 [Example 11] when tested on FLT3 (Homo sapiens (Human), UniProt P36888).
0.738

Name the value of IC50 reported for C[C@@H](Oc1nc(-c2cnn(C(C)(C)C)c2)cc2nn(C)cc12)[C@H]1CNC(=O)C1 [Example 2] when tested on FLT3 (Homo sapiens (Human), UniProt P36888).
7.39

Name the value of IC50 reported for CC(C)n1cc(-c2cc(O[C@H](C)[C@H]3CNC(=O)C3)c3cccnc3c2)cn1 [compound 115] when tested on FLT3 (Homo sapiens (Human), UniProt P36888).
0.041

Name the value of IC50 reported for COc1cc(-c2cc3nn(C)cc3c(O[C@H](C)[C@H]3CNC(=O)C3)n2)ccc1OC(C)C [Example 81] when tested on FLT3 (Homo sapiens (Human), UniProt P36888).
0.514

Name the value of IC50 reported for CCCn1cc(-c2cc(O[C@H](C)[C@H]3CNC(=O)C3)c3cccnc3c2)cn1 [compound 114] when tested on FLT3 (Homo sapiens (Human), UniProt P36888).
0.049

Name the value of IC50 reported for C[C@@H](Oc1cc(-c2ccc(F)cn2)cc2nn(C)cc12)[C@H]1CNC(=O)C1 [Example 41] when tested on FLT3 (Homo sapiens (Human), UniProt P36888).
0.505

Name the value of IC50 reported for COc1cc(-c2cc3nn(C)cc3c(O[C@H](C)[C@H]3CNC(=O)C3)n2)ccc1O [Example 8] when tested on FLT3 (Homo sapiens (Human), UniProt P36888).
0.369

Name the value of IC50 reported for C[C@@H](Oc1nc(-c2ccc(C(F)(F)F)nc2)cc2nn(C)cc12)[C@H]1CNC(=O)C1 [Example 61] when tested on FLT3 (Homo sapiens (Human), UniProt P36888).
0.411

Name the value of IC50 reported for Cc1c(-c2cc(O[C@H](C)[C@H]3CNC(=O)C3)c3cccnc3c2)cnn1C [compound 112] when tested on FLT3 (Homo sapiens (Human), UniProt P36888).
1.25
